Source of measurements: PubChem BioAssay AID1347165

# target-or-test-system: Lysine-specific demethylase 5B (Homo sapiens)
# assay-details: Primary screen for KDM5B Histone Demethylases FDH-coupled qHTS; further: nearly all actives have a fitted effect of over 70% in size; further: potency means the concentration at half of the fitted maximal effect
# experimental-conditions: FDH-coupled NADH fluorescence; series mostly up to 57.7 µM
Out of some 220,000 compounds screened, about 5,700 (2.6%) were called active. Another 18% or so got no clear call; they are omitted. This is one part of a sample in which actives are shown more often than they occur.
endpoint: Potency

[
  {
    "compound": "CN(C)C[C@@H]1CN(Cc2ccccn2)C[C@H]1NC(=O)c1ccc2cc[nH]c2c1",
    "Potency": "28.2 µM (active)"
  },
  {
    "compound": "Cc1cc(C)cc(C(=O)NCCC(=O)N2CCCC2)c1",
    "Potency": "inactive"
  },
  {
    "compound": "NC(=O)c1cccc(-c2ncc3c(n2)OCCN(c2cccc(C(F)(F)F)c2)C3=O)c1",
    "Potency": "inactive"
  },
  {
    "compound": "CC(=O)c1ccc(N2CCN(C(=O)CCNC(=O)Cn3ccc4ccccc4c3=O)CC2)cc1",
    "Potency": "inactive"
  },
  {
    "compound": "CC(=O)N1CCN(C(=O)CCC(=O)N2CCC(c3noc4cc(F)ccc34)CC2)CC1",
    "Potency": "inactive"
  }
]

Potency reported for this compound "COc1ccc(C(=O)N[C@H]2C[C@@H]3CC[C@H]2C3)cc1" : inactive

Potency reported for this compound "COc1ccc2[nH]c(C(=O)N[C@@H]3CN(S(C)(=O)=O)C[C@H]3CN(C)C)cc2c1" : 28.2 µM (active)

Potency reported for this compound "Cc1nc(NC(C)C)sc1C(=O)Nc1ccccc1" : inactive

Potency reported for this compound "COc1ccc(Oc2c(C)oc3cc(OCC(=O)NCc4ccccc4)ccc3c2=O)cc1" : inactive

Potency reported for this compound "O=C1c2cnc(-c3ccc(O)c(F)c3)nc2OCCN1Cc1ccccc1" : 20 µM (active)

Potency reported for this compound "CN(C)C[C@@H]1CN(S(C)(=O)=O)C[C@H]1NC(=O)c1ccc2ncccc2c1" : inactive

* * *

# target-or-test-system: Lysine-specific demethylase 5B (Homo sapiens) (UniProt Q9UGL1)
# Sequence (Q9UGL1 whole entry, looked up): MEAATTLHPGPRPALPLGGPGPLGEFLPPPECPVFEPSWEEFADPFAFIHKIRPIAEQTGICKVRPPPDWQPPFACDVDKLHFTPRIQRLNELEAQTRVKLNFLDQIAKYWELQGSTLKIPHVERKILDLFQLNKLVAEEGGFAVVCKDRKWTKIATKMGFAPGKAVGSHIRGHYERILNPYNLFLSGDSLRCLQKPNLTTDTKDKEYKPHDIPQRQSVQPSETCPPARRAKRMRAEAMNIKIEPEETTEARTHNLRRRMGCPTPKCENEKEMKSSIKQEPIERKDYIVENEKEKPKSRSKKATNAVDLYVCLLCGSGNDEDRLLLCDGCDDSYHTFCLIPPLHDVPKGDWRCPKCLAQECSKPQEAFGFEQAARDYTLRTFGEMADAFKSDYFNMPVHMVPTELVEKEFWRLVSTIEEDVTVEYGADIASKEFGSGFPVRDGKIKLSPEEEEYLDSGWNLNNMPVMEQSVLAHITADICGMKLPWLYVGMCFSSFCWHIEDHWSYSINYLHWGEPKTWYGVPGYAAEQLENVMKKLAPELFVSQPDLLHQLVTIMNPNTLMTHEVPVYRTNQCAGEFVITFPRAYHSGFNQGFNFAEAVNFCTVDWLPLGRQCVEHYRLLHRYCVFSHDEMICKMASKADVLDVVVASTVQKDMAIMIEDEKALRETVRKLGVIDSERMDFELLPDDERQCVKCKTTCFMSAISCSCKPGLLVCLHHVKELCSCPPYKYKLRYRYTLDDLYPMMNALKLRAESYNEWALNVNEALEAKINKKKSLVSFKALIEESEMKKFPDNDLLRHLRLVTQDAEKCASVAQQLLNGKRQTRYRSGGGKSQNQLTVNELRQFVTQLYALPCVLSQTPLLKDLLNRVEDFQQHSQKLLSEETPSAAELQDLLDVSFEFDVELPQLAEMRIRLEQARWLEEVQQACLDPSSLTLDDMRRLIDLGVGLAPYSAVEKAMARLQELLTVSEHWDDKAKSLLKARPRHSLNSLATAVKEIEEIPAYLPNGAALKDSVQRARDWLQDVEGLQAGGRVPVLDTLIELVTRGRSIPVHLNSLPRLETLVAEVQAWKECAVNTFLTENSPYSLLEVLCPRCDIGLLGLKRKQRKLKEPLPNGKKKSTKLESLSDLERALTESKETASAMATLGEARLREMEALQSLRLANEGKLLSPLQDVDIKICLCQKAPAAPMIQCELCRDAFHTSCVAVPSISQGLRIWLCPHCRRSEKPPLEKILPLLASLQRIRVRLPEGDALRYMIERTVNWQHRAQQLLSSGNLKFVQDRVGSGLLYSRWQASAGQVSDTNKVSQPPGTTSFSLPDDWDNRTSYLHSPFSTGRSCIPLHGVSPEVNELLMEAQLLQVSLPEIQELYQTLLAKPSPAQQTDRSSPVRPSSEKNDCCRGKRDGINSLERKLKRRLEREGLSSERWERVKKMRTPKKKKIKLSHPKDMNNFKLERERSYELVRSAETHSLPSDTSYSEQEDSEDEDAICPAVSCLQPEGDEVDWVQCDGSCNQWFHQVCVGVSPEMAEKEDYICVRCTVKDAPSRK
# assay-details: Primary screen for KDM5B Histone Demethylases FDH-coupled qHTS; further: nearly all actives have a fitted effect of over 70% in size; further: potency means the concentration at half of the fitted maximal effect
# experimental-conditions: FDH-coupled NADH fluorescence (FDH is formaldehyde dehydrogenase); series mostly up to 57.7 µM
Among all 220,000 compounds or so, about 5,700 (2.6%) were called active. Not shown: some 18% with an inconclusive outcome. The sample holds actives, similar compounds and a random draw of the others, so the mix is not that of the screen.
endpoint: Potency

Example entries and their recorded answers appear below.
[
  {
    "compound": "Cc1ccc(-c2noc(-c3cccc(Cl)c3)n2)cc1",
    "Potency": "inactive"
  },
  {
    "compound": "CN1CCC2(C1)CN(CC1CCOCC1)c1ccc(C(=O)NCCCn3ccnc3)cc12 (stereo unspecified)",
    "Potency": "39.8 µM (active)"
  },
  {
    "compound": "Cc1cc(NC(=O)COc2c(CO)cc(F)cc2CO)ccc1Br",
    "Potency": "inactive"
  },
  {
    "compound": "CC(C)(C)c1ccc(C(=O)NN=C2CCCCC2)cc1",
    "Potency": "inactive"
  },
  {
    "compound": "CCOC(=O)c1oc2cc(OC(C)=O)ccc2c(=O)c1-c1ccc(OC)cc1",
    "Potency": "inactive"
  }
]

Potency reported for this compound "CC(=O)Nc1ccc(C2(C(=O)NCCCN3CCOCC3)CCCCC2)cc1" : inactive
